# Test system: TRKA
# Construct: gene NTRK1
# run conditions: concentration: 1 μM, replicates: in singlicate; n = 1;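 also: KINOMEscan kinase panel screen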
Would you kindly list %Inh for each of these molecules?
Give bare numbers, in %.

Sample records with %Inh:
>>> endpoint_result("O=C(O)C(F)(F)F.O=C(O)C(F)(F)F.O=c1[nH]ccc2nc(N[C@@H]3CCCNC3)nc(Nc3ccc(S(=O)(=O)N4CCOCC4)cc3)c12")
100
>>> endpoint_result("COc1cc2c(cc1OCCN1CCNCC1)ncc1c3ccc(C#N)cc3[nH]c21")
99.8
>>> endpoint_result("Cc1ccc(S(=O)(=O)Nc2ccc(Nc3nccc(Nc4cccc5[nH]ncc45)n3)cc2)cc1")
0
>>> endpoint_result("COc1cccc(NC(=O)NC2CCN(c3ccnc(Nc4cc(OC)c(OC)c(OC)c4)n3)C2)c1 (stereo not shown)")
54
>>> endpoint_result("Cc1ccc(C)c(NC(=O)NC2CCN(c3ccnc(Nc4ccc(F)cc4)n3)C2)c1 (stereo not shown)")
0

Report %Inh for every entry below.
1. c1ccc(Oc2ccc(Nc3ccnc4cc(-c5ccc(CNCCN6CCOCC6)o5)ccc34)cc2)nc1
2. O=C(Nc1cccc(-c2nn3ccccc3c2-c2ccnc(Nc3cccc(C(F)(F)F)c3)n2)c1)c1c(F)cccc1F
3. O=C(NC1CCN(c2ccnc(Nc3ccc(F)cc3)n2)C1)c1cc2ccccc2s1 (stereo not shown)
4. CCCCc1nn2ncccc2c1-c1ccnc(Nc2ccc(N3CCN(C)CC3)cc2)n1

// result
100
0
10
88

// query # query: %Inh of entry O=C(Nc1cccc(Oc2ccc3nc(NC(=O)C4CC4)cn3n2)c1)c1ccccc1C(F)(F)F
// result 0

====

Would you kindly list %Inh for each of these compounds?
# System: FLT1
# run conditions: concentration: 1 μM, replicates: in singlicate; n = 1
Reply with a number, then the unit it belongs to.

Sample records with %Inh:
>>> endpoint_result("O=C(Nc1cccc(-c2nn3ccccc3c2-c2ccnc(Nc3cccc(C(F)(F)F)c3)n2)c1)c1c(F)cccc1F")
"78%"
>>> endpoint_result("c1ccc(Oc2ccc(Nc3ccnc4cc(-c5ccc(CNCCN6CCOCC6)o5)ccc34)cc2)nc1")
"3%"
>>> endpoint_result("O=C(Nc1cccc(-c2nn3ccccc3c2-c2ccnc(Nc3cccc(F)c3)n2)c1)c1c(F)ccc(F)c1Cl")
"89%"

Now turn to the next compound.
// query # query: %Inh of entry CN(C)S(=O)(=O)c1cc(-c2ccc3nccc(-c4cccc(S(N)(=O)=O)c4)c3c2)cnc1N
// result 25%

====

# System: LRRK2
# run conditions: concentration: 1 μM, replicates: in singlicate; n = 1
observable: %Inh

>>> endpoint_result("c1ccc(-c2cnc3nccnn23)cc1 [AH20685]")
"5%"
>>> endpoint_result("COc1cccc(NC(=O)NC2CCN(c3ccnc(Nc4cc(OC)c(OC)c(OC)c4)n3)C2)c1 (stereo not shown) [GSK1379763]")
"0%"
>>> endpoint_result("COC(=O)Nc1nc2cc(Oc3ccc(NC(=O)Nc4cc(C(F)(F)F)ccc4F)cn3)ccc2[nH]1.Cl.Cl [GW681170]")
"22%"

Now turn to the next compound.
// query # query: %Inh of entry O=C(Nc1n[nH]c2nc(-c3ccc(O)cc3)ccc12)C1CC1 [SB-710363]
// result 0%

====

# System: TIE1
# run conditions: concentration: 1 μM, replicates: in singlicate; n = 1
observable: %Inh (%)
One number for each entry, in %.

Sample records with %Inh:
>>> endpoint_result("O=C(Nc1cccc(-c2nn3ccccc3c2-c2ccnc(Nc3cccc(C(F)(F)F)c3)n2)c1)c1c(F)cccc1F")
31
>>> endpoint_result("COCCOCCOc1cc2ncc3c4ccc(C#N)cc4[nH]c3c2cc1OC")
0

Now turn to the next compound.
// query # query: %Inh of entry COc1cccc(-c2ccc3c(NC(=O)C4CC4)n[nH]c3n2)c1
// result 0

====

# System: MAP4K4
# run conditions: concentration: 1 μM, replicates: in singlicate; n = 1
Mark y only for %Inh values smaller than 6%; exact matches and larger values are n.

These recorded examples may help you get a feel for the data.
>>> category_label("CCn1c(-c2nonc2N)nc2c(C#CC(C)(C)O)nc(OC[C@H](N)c3ccccc3)cc21 [GSK943949]")
"n"
>>> category_label("Cc1ccc(C)c(NC(=O)NC2CCN(c3ccnc(Nc4ccc(F)cc4)n3)C2)c1 (centres unmarked) [GSK1379720]")
"y"
>>> category_label("FC(F)(F)c1ccc(/C=C/c2cncnc2Nc2ccc3[nH]c(Cc4ccccc4)nc3c2)cc1 [GW709199]")
"y"
>>> category_label("NCCCC(NC(=O)c1cc(Br)c(-c2ccnc3[nH]ccc23)s1)c1ccccc1.O=C(O)C(F)(F)F.O=C(O)C(F)(F)F (centres unmarked) [GSK1287544]")
"n"
>>> category_label("Oc1cc(Nc2ccnc3cc(I)ccc23)ccc1F [GW552771]")
"n"

// query For this compound, is %Inh lower than 6%? COc1cc(Nc2ncc3c(C)nc(-c4cc5ccccc5[nH]4)n3n2)cc(OC)c1OC [GW869516]
// result n

// query // repeat for Nc1ncnc2c1nc(-c1ccccc1)n2-c1ccccc1 [SKF-97293] and report
// result y

// query // repeat for O=C(NC1CCN(c2ccnc(Nc3ccc(F)cc3)n2)C1)c1cc2ccccc2s1 (centres unmarked) [GSK1379716] and report
// result y

// query // repeat for COc1cccc(NC(=O)NC2CCN(c3ccnc(Nc4cc(OC)c(OC)c(OC)c4)n3)C2)c1 (centres unmarked) [GSK1379763] and report
// result n

// query // repeat for Nc1n[nH]c2cnc(-c3ccccc3)cc12 [SB-642124] and report
// result n

// query // repeat for Cl.Cl.NCC(C(=O)Nc1cc(Br)c(-c2ccnc3[nH]ccc23)s1)c1ccccc1 (centres unmarked) [GSK1269851] and report
// result n

// query // repeat for O=C(Nc1cccc(-c2nn3ccccc3c2-c2ccnc(Nc3cccc(C(F)(F)F)c3)n2)c1)c1c(F)cccc1F [GSK292658] and report
// result y

====

# System: LIMK2
# run conditions: concentration: 1 μM, replicates: in singlicate; n = 1
observable: %Inh
Reply with a number, then the unit it belongs to.

Sample records with %Inh:
>>> endpoint_result("COc1cc(Nc2ncc3c(C)nc(-c4cc5ccccc5[nH]4)n3n2)cc(OC)c1OC")
"4%"
>>> endpoint_result("CN1CCN(Cc2cccc(-c3ccc4c(Nc5ccc(Oc6ccccc6)cc5)ccnc4c3)c2)CC1")
"0%"
>>> endpoint_result("O=C(Nc1n[nH]c2nc(-c3ccc(O)cc3)ccc12)C1CC1")
"0%"
>>> endpoint_result("Nc1n[nH]c2cnc(-c3ccccc3)cc12")
"1%"
>>> endpoint_result("O=C(Nc1cccc(-c2nn3ccccc3c2-c2ccnc(Nc3cccc(F)c3)n2)c1)c1c(F)ccc(F)c1Cl")
"0%"

Now turn to the next compound.
// query # query: %Inh of entry Cn1cc(-c2ccc3c(c2)CCN3C(=O)Cc2cccc(F)c2)c2c(N)ncnc21
// result 0%

====

# Test system: AURKC
# run conditions: concentration: 1 μM, replicates: in singlicate; n = 1
observable: %Inh (%)
Answers are plain numbers, in %.

Sample records with %Inh:
>>> endpoint_result("O=c1[nH]cc(-c2ccc(N3CCOCC3)cc2)c2sc(-c3cn[nH]c3)cc12")
21
>>> endpoint_result("O=C(Nc1cccc(-c2nn3ccccc3c2-c2ccnc(Nc3cccc(C(F)(F)F)c3)n2)c1)c1c(F)cccc1F")
49
>>> endpoint_result("O=C(Nc1cccc(Oc2ccc3nc(NC(=O)C4CC4)cn3n2)c1)c1ccccc1C(F)(F)F")
77
>>> endpoint_result("O=C(Nc1n[nH]c2nc(-c3ccc(O)cc3)ccc12)C1CC1")
0

Now turn to the next compound.
// query I'm curious: which %Inh was measured for Nc1ncnc2c1nc(-c1ccccc1)n2-c1ccccc1 tested on AURKC?
// result 0

====

# System: PRKCD
# run conditions: concentration: 1 μM, replicates: in singlicate; n = 1
Would you kindly list %Inh for each of these compounds?
Give bare numbers, in %.

>>> endpoint_result("CN(C)Cc1ccc(-c2ccc3c(Nc4ccc(Oc5ccccn5)cc4)ccnc3c2)o1 [GW567148]")
0
>>> endpoint_result("COC(=O)Nc1nc2ccc(Oc3ccc(NC(=O)Nc4cc(C(F)(F)F)ccc4F)cc3)cc2n1C.Cl [GW692089]")
0
>>> endpoint_result("Cl.Cl.NCC(NC(=O)c1cc(-c2ccccc2)c(-c2ccnc3[nH]ccc23)s1)c1ccccc1 (centres unmarked) [GSK1321561]")
98
>>> endpoint_result("CN(C)S(=O)(=O)c1cc(-c2ccc3nccc(-c4cccc(S(N)(=O)=O)c4)c3c2)cnc1N [GSK1669921]")
0

Now turn to the next compound.
// query # query: %Inh of entry c1ccc(Oc2ccc(Nc3ccnc4cc(-c5ccc(CNCCN6CCOCC6)o5)ccc34)cc2)nc1 [GW567145]
// result 0
